Reference source: patent US20240158370A1

Molecular target: CK1α (Homo sapiens, UniProt P48729+Q96SW2)
Construct: CSNK1A1-HiBit KI HEK293(LgBit) Cells; host or cells: HEK293(LgBit) knock-in cells
Sequence (P48729 whole entry): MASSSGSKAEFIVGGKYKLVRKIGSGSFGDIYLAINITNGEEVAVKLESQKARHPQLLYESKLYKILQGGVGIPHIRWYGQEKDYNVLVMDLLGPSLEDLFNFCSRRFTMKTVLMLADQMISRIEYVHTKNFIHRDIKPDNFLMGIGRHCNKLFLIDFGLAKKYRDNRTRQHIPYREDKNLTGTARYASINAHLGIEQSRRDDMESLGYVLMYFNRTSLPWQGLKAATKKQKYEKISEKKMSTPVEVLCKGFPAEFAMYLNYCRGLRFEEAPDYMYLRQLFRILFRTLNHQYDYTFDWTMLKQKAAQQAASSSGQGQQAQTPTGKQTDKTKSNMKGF
Sequence (Q96SW2 whole entry): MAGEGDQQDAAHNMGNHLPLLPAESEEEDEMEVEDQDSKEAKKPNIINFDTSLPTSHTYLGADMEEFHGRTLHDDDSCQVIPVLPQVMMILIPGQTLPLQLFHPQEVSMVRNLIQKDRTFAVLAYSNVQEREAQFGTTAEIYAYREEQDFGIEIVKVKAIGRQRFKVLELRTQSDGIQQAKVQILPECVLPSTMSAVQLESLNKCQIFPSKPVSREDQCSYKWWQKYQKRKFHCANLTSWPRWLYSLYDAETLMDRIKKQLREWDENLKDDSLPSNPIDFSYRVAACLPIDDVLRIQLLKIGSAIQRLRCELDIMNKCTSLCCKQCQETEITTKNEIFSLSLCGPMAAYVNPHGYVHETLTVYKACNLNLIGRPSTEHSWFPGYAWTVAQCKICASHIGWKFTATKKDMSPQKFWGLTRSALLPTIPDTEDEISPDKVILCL
Sequence (Q16531 whole entry partner): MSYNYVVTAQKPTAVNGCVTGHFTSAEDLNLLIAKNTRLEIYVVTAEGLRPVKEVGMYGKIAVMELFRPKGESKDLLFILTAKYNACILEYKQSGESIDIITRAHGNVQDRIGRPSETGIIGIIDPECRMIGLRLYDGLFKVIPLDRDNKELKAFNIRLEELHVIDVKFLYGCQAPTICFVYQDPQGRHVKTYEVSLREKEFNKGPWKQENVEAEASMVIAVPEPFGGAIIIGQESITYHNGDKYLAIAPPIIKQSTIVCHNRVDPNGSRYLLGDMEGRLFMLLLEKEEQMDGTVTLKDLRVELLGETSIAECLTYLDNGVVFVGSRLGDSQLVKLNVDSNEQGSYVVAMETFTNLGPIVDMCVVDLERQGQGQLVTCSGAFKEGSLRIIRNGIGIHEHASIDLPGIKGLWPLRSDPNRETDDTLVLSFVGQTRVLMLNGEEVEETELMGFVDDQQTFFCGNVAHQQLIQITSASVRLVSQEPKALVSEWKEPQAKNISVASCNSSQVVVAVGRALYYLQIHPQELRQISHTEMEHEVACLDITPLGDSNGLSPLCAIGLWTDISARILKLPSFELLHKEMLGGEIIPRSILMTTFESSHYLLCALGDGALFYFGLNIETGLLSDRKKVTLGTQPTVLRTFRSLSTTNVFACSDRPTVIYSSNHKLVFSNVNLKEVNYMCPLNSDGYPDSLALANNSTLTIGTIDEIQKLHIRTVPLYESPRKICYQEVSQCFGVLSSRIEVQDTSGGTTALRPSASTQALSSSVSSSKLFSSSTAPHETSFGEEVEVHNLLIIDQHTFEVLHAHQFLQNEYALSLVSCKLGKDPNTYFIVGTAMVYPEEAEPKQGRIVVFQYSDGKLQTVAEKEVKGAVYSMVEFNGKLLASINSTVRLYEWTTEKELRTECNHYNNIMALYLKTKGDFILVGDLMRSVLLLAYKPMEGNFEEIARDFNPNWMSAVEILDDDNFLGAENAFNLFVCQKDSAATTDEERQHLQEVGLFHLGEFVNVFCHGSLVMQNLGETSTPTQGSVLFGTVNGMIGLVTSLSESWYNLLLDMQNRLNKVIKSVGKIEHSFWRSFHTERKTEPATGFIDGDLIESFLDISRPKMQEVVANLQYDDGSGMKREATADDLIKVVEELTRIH
Assay: HiBiT degradation assay, CK1α, Procedure A
Format: cell-based
Conditions: six hours
readout type: DC50

query: Can you share its DC50? I mean this compound: CCn1ncc(-c2ccc3c(c2)CN(C2CCC(=O)NC2=O)C3=O)c1-c1ccccc1 (stereo not shown)
result: < 25 nM

query: Likewise for Cn1cnc(-c2ccc3c(c2)CN(C2CCC(=O)NC2=O)C3=O)c1-c1ccc2c(ccn2C)c1 (stereo not shown) ?
result: < 25 nM

query: Likewise for Cn1nc(-c2ccc3c(c2)CN(C2CCC(=O)NC2=O)C3=O)nc1N1CCC(C)(C)CC1 (stereo not shown) ?
result: < 25 nM

query: Likewise for Cn1ncc(-c2ccc3c(c2)CN(C2CCC(=O)NC2=O)C3=O)c1-c1cnc2sccc2c1 (stereo not shown) ?
result: ≥ 25 nM
